Origin of measurements: patent US20250368627A1

# Tested on: HCT116 human colorectal carcinoma cells
# assayComment: CellTiter-Glo Luminescent Cell Viability Assay
# Format: cell-based
# measurementParameters: HCT-116, 72 h, 3 days
pEC50: −log10 of the molar value.
pEC50 for assorted molecules

A selection of reference data follows.
molecule	experimentalSystem	pEC50
N#Cc1c[nH]c2c(NS(=O)(=O)c3cnn(C(F)F)c3)ccc(F)c12 [Compound 215]	HCT116 human colorectal carcinoma cells	6.00 to 6.60
O=S(=O)(Nc1cccc2c(Cl)c[nH]c12)c1cnn(C2COC2)c1 [Compound 40]	HCT116 human colorectal carcinoma cells	6.00 to 6.60
Cc1ccc(NS(=O)(=O)c2cnn(C3(CF)COC3)c2)c2[nH]cc(C#N)c12 [Compound 117]	HCT116 human colorectal carcinoma cells	> 6.60
N#Cc1c[nH]c2c(NS(=O)(=O)c3cnn(CC(F)F)c3)ccc(Cl)c12 [Compound 91]	HCT116 human colorectal carcinoma cells	6.00 to 6.60
Cc1ccc(NS(=O)(=O)c2cnn(C3(CO)CC3)c2)c2[nH]cc(C#N)c12 [Compound 268]	HCT116 human colorectal carcinoma cells	> 6.60

Query block: # get_value(readout='pEC50', item= Cc1ccc(NS(=O)(=O)c2cnn(CCS(C)(=O)=O)c2)c2[nH]cc(C#N)c12 [Compound 67] )
Result block: 6.00 to 6.60

Query block: # query: pEC50 of entry Cc1ccc(NS(=O)(=O)c2cnn(CC(C)(C)C#N)c2)c2[nH]cc(C#N)c12 [Compound 76]
Result block: 6.00 to 6.60

Query block: // returns reported pEC50 for input CC(C)(O)Cn1cc(S(=O)(=O)Nc2ccc(Cl)c3c(C#N)c[nH]c23)c(F)n1 [Compound 204]
Result block: < 6.00

Query block: Give its pEC50 value. Item: N#Cc1c[nH]c2c(NS(=O)(=O)c3cnn(CCCO)c3)ccc(F)c12 [Compound 211]
Result block: 6.00 to 6.60

Query block: What does the data say about its pEC50? Entry: Cc1ccc(NS(=O)(=O)c2cnn(C3CC(F)C3)c2)c2[nH]cc(C#N)c12 (stereo not drawn) [Compound 111]
Result block: 6.00 to 6.60

Query block: Returns the measured pEC50 for the input molecule. Input: CC(C)(C(N)=O)n1cc(S(=O)(=O)Nc2ccc(F)c3c(C#N)c[nH]c23)cn1 [Compound 240]
Result block: < 6.00

Query block: For the molecule shown here, O=S(=O)(Nc1ccc(Cl)c2c(Cl)c[nH]c12)c1cn[nH]c1 [Compound 159] , give the reported pEC50.
Result block: > 6.60

Query block: Give the measured pEC50 of Cc1ccc(NS(=O)(=O)c2cnn(C3CCCC3)c2)c2[nH]cc(C#N)c12 [Compound 88] .
Result block: 6.00 to 6.60

Query block: // lookup pEC50 for C[C@H](O)Cn1cc(S(=O)(=O)Nc2ccc(Cl)c3c(C#N)c[nH]c23)cn1 [Compound 196]
Result block: 6.00 to 6.60

Query block: Quick one: pEC50 of C[C@@H](CO)n1cc(S(=O)(=O)Nc2ccc(F)c3c(C#N)c[nH]c23)cn1 [Compound 267] ?
Result block: 6.00 to 6.60

Query block: Requested read-out: pEC50. Entry: CCn1cc(S(=O)(=O)Nc2ccc(F)c3c(C#N)c[nH]c23)cn1 [Compound 217]
Result block: 6.00 to 6.60

Query block: Param item = Cn1cc(S(=O)(=O)Nc2ccc(Cl)c3c(Cl)c[nH]c23)cn1 [Compound 81] ; retrieve measured pEC50.
Result block: > 6.60

Query block: Param item = N#Cc1cc(C(F)(F)F)ccc1-n1cc(S(=O)(=O)Nc2cccc3c(Cl)c[nH]c23)cn1 [Compound 22] ; retrieve measured pEC50.
Result block: < 6.00

Query block: Which pEC50 is reported for this molecule? N#Cc1c[nH]c2c(NS(=O)(=O)c3cnn([C@@H](CO)C(F)F)c3)ccc(Cl)c12 [Compound 226]
Result block: 6.00 to 6.60

Query block: If you can, please state the reported pEC50 value of Cc1ccc(NS(=O)(=O)c2cnn(C(C)C)c2)c2[nH]cc(C#N)c12 [Compound 63] .
Result block: 6.00 to 6.60

Query block: // returns reported pEC50 for input Cc1ccc(NS(=O)(=O)c2cnn(C)c2)c2[nH]ccc12 [Compound 74]
Result block: < 6.00

Query block: GET /values?readout=pEC50&item= [2H]C([2H])([2H])n1cc(S(=O)(=O)Nc2ccc(C)c3c(C#N)c[nH]c23)cn1 [Compound 110]
Result block: 6.00 to 6.60

Query block: pEC50 lookup needed for Cc1ccc(NS(=O)(=O)c2cnn(S(=O)(=O)CF)c2)c2[nH]cc(C#N)c12 [Compound 100] , thanks.
Result block: 6.00 to 6.60

Query block: Quick check: pEC50 of CC(C)(O)Cn1ncc(S(=O)(=O)Nc2ccc(Cl)c3c(C#N)c[nH]c23)c1N [Compound 289] ?
Result block: 6.00 to 6.60

Query block: Entry under review: Cc1ccc(NS(=O)(=O)c2cnn(CC(F)(F)F)c2)c2[nH]cc(C#N)c12 [Compound 60] . Reported pEC50?
Result block: > 6.60

Query block: // returns reported pEC50 for input CC(CC(C)(C)O)n1cc(S(=O)(=O)Nc2ccc(Cl)c3c(C#N)c[nH]c23)cn1 (stereo not drawn) [Compound 243]
Result block: 6.00 to 6.60

Query block: I have this molecule here, Cc1ccc(NS(=O)(=O)c2cnn(C)c2C(F)F)c2[nH]cc(C#N)c12 [Compound 149] , and I need its recorded pEC50.
Result block: 6.00 to 6.60

Query block: Form field: reported pEC50 of O=S(=O)(Nc1cccc2c(Cl)c[nH]c12)c1cnn(-c2ccccc2)c1 [Compound 37]
Result block: < 6.00
